// reported GI50 for each item listed
system: NCI-H460; experiment: NCI tumour cell line growth inhibition, 48 h
The source made the active and inactive calls. Cut-off read from the data, not from the text of the source: active = GI50 up to about 1.1 µM and inactive = higher.
ENDPOINT: GI50

- COMPOUND: "CC1(C)[C@H]2CC[C@@]13C(=O)N1C(=O)O[C@@H]([C@H]1Cl)C(Cl)(COCc1ccccc1)C(=O)OCCO[C@H]3C2 (stereo partly specified)"
  RESULT: "53.6 µM (inactive)"
- COMPOUND: "NC(CCCNc1cccc(O)c1)C(=O)O (stereo unspecified)"
  RESULT: "> 100 µM (inactive)"
- COMPOUND: "CCCCc1c2c(nc3c1CCCC3=O)C(=O)CCC2"
  RESULT: "> 100 µM (inactive)"
- COMPOUND: "C[C@@H](C[C@@H](O)[C@H](O)C(C)(C)O)[C@H]1CC=C2[C@]3(C)[C@H](O)C[C@H]4C(C)(C)[C@H](O)CC[C@]4(C)[C@H]3CC[C@@]21C"
  RESULT: "15.8 µM (inactive)"
- COMPOUND: "N#CC(NC12CC3CC(CC(C3)C1)C2)c1ccc2c(c1)OCO2 (stereo unspecified)"
  RESULT: "> 100 µM (inactive)"
- COMPOUND: "CCOC(=O)C1CSCCSC1"
  RESULT: "17.5 µM (inactive)"
- COMPOUND: "N#CC(/N=N/c1ccc(Cl)cc1)c1nc2ccccc2o1 (stereo unspecified)"
  RESULT: "> 100 µM (inactive)"
- COMPOUND: "COc1ccc(-c2cc(-c3ccc(Nc4ccnc5cc(Cl)ccc45)cc3)[nH]c(=O)c2C#N)cc1"
  RESULT: "> 100 µM (inactive)"
- COMPOUND: "Nc1ccc(Nc2cc(=O)[nH]c(=O)[nH]2)cc1Cl"
  RESULT: "> 100 µM (inactive)"
- COMPOUND: "CN1C(=O)C(=O)c2cc3c(c4c2c1cc1ccccc14)OCO3"
  RESULT: "26.7 µM (inactive)"
- COMPOUND: "CC(C)(C)OC(=O)NC(Cc1ccccc1)C(=S)N1CCCC1 (stereo unspecified)"
  RESULT: "> 93.8 µM (inactive)"

====

Consider the following molecules and their measured GI50 readings.
system: SK-MEL-5; experiment: NCI tumour cell line growth inhibition, 48 h
Active and inactive are the calls of the source. Rule as the data show it: active = GI50 up to about 1.1 µM and inactive = higher.

- MOLECULE: "N=C(N)N/N=C/c1nc2n(c1[N+](=O)[O-])CCS2"
  GI50: "18.5 µM (inactive)"
- MOLECULE: "CCC(C#N)NC(=O)NC(C#N)CC (stereo not given)"
  GI50: "> 100 µM (inactive)"
- MOLECULE: "O=C(O)c1ccc2nc(-c3ccccn3)c(-c3ccccn3)nc2c1"
  GI50: "> 100 µM (inactive)"
- MOLECULE: "Cc1cc([N+](=O)[O-])c(C)c2c1[nH]c1ccc(Cl)cc12"
  GI50: "> 100 µM (inactive)"
- MOLECULE: "O=C(NCCCCNCCCNC(=O)c1ccccc1)c1ccccc1"
  GI50: "> 100 µM (inactive)"
- MOLECULE: "COC1C(O)C(O[C@H]2CC[C@@]3(C)C(CC[C@@H]4[C@@H]3CC[C@]3(C)[C@@H](C(C)OC5OC(CO)C(O)C(O)C5O)CC[C@]43O)C2)OC(C)C1OC1OC(CO)C(O)C(O)C1O (stereo not given in full)"
  GI50: "> 100 µM (inactive)"
- MOLECULE: "Nc1ncnc2c1ncn2C1OC(CO)C(O)C1N (stereo not given)"
  GI50: "> 100 µM (inactive)"
- MOLECULE: "CC(=O)c1ccccc1NS(=O)(=O)c1ccc2nc(C)n(NS(=O)(=O)c3ccccc3C(C)=O)c(=O)c2c1"
  GI50: "> 100 µM (inactive)"
- MOLECULE: "C1=Nc2ccccc2Cn2nncc21"
  GI50: "> 10 µM (inactive)"
- MOLECULE: "O=C(NCc1cccnc1)NCc1cccnc1"
  GI50: "> 100 µM (inactive)"

====

system: SF-268; experiment: NCI tumour cell line growth inhibition, 48 h
Calls of active or inactive are those of the source. Cut-off read from the data, not from the text of the source: active = GI50 up to about 1.1 µM and inactive = higher.
Possible outcomes: active, inactive

- COMPOUND: "O=C(NNS(=O)(=O)c1ccc(Br)cc1)c1ccc(Cl)cc1NC(=O)C12CC3CC(CC(C3)C1)C2"
  ASSIGNED CLASS: "inactive"
- COMPOUND: "O=C1C=CC2(C=C1)O[C@H](Cc1ccccc1)[C@@H](Cc1ccccc1)O2"
  ASSIGNED CLASS: "active"
- COMPOUND: "O=[N+]([O-])c1ccc(C(c2c[nH]c3ccccc23)c2c[nH]c3ccccc23)cc1"
  ASSIGNED CLASS: "inactive"
- COMPOUND: "CCOP(=O)(OCC)C(NC(=O)OCC(Cl)(Cl)Cl)n1nnc(C(=O)OC)c1C(=O)OC (stereo unspecified)"
  ASSIGNED CLASS: "inactive"
- COMPOUND: "CC(C)(C)c1cc(C(C)(C)C)c(P=C(Cl)Cl)c(C(C)(C)C)c1 (stereo unspecified)"
  ASSIGNED CLASS: "inactive"
- COMPOUND: "Nc1ccccc1Nc1ccccc1C(=O)[O-].Nc1ccccc1Nc1ccccc1C(=O)[O-].[Zn+2]"
  ASSIGNED CLASS: "inactive"
- COMPOUND: "c1ccc(/N=C2\\c3ccsc3/C(=N/c3ccccc3)c3ccsc32)cc1"
  ASSIGNED CLASS: "inactive"
- COMPOUND: "CN1C(=O)C(=O)c2cc3c(c4c2c1cc1ccccc14)OCO3"
  ASSIGNED CLASS: "inactive"
- COMPOUND: "NC1=NC2=C(CCCC2)C(c2cccs2)S1 (stereo unspecified)"
  ASSIGNED CLASS: "inactive"
- COMPOUND: "COc1ccc(NC(=S)N/N=C2\\C(=O)Nc3ccccc32)cc1"
  ASSIGNED CLASS: "inactive"
- COMPOUND: "C=C1[C@H](OCC(C)C)[C@@H](OC(=O)C(C)CC)[C@@H](O)C(C)(C)/C=C/[C@H](C)C(=O)[C@@]2(O)C[C@H](C)[C@H](O)[C@@H]2[C@H]1OC(=O)C(C)CC (stereo partly specified)"
  ASSIGNED CLASS: "inactive"
- COMPOUND: "CCN(C(=O)/C=C/c1ccco1)c1ccccc1"
  ASSIGNED CLASS: "inactive"
- COMPOUND: "O=c1c2ccccc2nc2n1CCc1c-2[nH]c2ccccc12"
  ASSIGNED CLASS: "inactive"
- COMPOUND: "Cc1cc(=O)n2c(cc3cccccc32)n1"
  ASSIGNED CLASS: "inactive"
- COMPOUND: "COc1ccc(-c2cc3ccccc3oc2=O)cc1OC"
  ASSIGNED CLASS: "inactive"
- COMPOUND: "Cc1cc(C)nc(SC(C)C(=O)N/N=C/c2ccc(OCc3ccccc3)cc2)n1 (stereo unspecified)"
  ASSIGNED CLASS: "inactive"

====

system: SF-268; experiment: NCI tumour cell line growth inhibition, 48 h
The source made the active and inactive calls. No stated cut-off is given here; in the data, active = GI50 up to about 1.1 µM and inactive = higher.
As shown below, each of these molecules has a reported GI50 value.
ENDPOINT: GI50

- MOLECULE: "C[C@@H](C[C@@H](O)[C@H](O)C(C)(C)O)[C@H]1CC=C2[C@]3(C)[C@H](O)C[C@H]4C(C)(C)[C@H](O)CC[C@]4(C)[C@H]3CC[C@@]21C"
  RESULT: "13.4 µM (inactive)"
- MOLECULE: "CC(=O)NCCC1CNc2ccccc21 (stereo unspecified)"
  RESULT: "> 100 µM (inactive)"
- MOLECULE: "O=S1(=O)C(c2ccccc2)=C(O)c2ccccc21"
  RESULT: "> 100 µM (inactive)"
- MOLECULE: "Nc1ncn2c(n1)nc1ccccc12"
  RESULT: "> 100 µM (inactive)"
- MOLECULE: "CC(C)(C)OC(=O)NC(Cc1ccccc1)C(=S)N1CCCC1 (stereo unspecified)"
  RESULT: "> 100 µM (inactive)"
- MOLECULE: "CCOP(=O)(OCC)C(Cc1ccc(Cl)cc1)NS(=O)(=O)c1ccc(C)cc1 (stereo unspecified)"
  RESULT: "> 100 µM (inactive)"
- MOLECULE: "CCN(CC)CCC1CC/C(=C\\c2ccc(OC)cc2)C1=O (stereo unspecified)"
  RESULT: "> 100 µM (inactive)"
- MOLECULE: "CN(C)c1ccc(C(N)=O)cn1"
  RESULT: "> 100 µM (inactive)"
- MOLECULE: "O=C1NC2C(CCO)CC=C[C@H]2c2cc3c(cc21)OCO3 (stereo partly specified)"
  RESULT: "> 100 µM (inactive)"
- MOLECULE: "CC1(C)OC[C@@H]([C@@]2(COC(c3ccccc3)(c3ccccc3)c3ccccc3)CC=CC(=O)O2)O1"
  RESULT: "45.5 µM (inactive)"
- MOLECULE: "CCC(=O)NC(Nc1ccccc1F)(C(F)(F)F)C(F)(F)F"
  RESULT: "> 100 µM (inactive)"
- MOLECULE: "O=C1CCCCCCCCCCC1CN1CCOCC1 (stereo unspecified)"
  RESULT: "> 100 µM (inactive)"
- MOLECULE: "N=C(N)N/N=C/c1nc2n(c1[N+](=O)[O-])CCS2"
  RESULT: "10.6 µM (inactive)"
- MOLECULE: "O=C(O)/C(Cl)=C(\\Cl)C(=O)c1ccccc1"
  RESULT: "> 100 µM (inactive)"
- MOLECULE: "CC1(C)C(c2ccccc2)=NN(O)c2ccccc21"
  RESULT: "> 100 µM (inactive)"
- MOLECULE: "COc1ccc([C@@H]2C[C@@H]3C(=O)OC(=O)[C@@H]3c3c2c2ccccc2n3C)cc1"
  RESULT: "> 100 µM (inactive)"
